Cited source for all entries: ChEMBL document CHEMBL3120149

Measured Ratio by item
protocol-details: Antioxidant activity assessed as rosebengal-induced singlet oxygen radical scavenging activity by ESR spin trapping method relative to 4-OH-TEMP
Type: functional

{"columns": ["compound", "Ratio"],
 "data": [
  ["Cc1c(C)c2c(c(C)c1O)CCC(C)(C(=O)O)O2 (centres undefined)", 692],
  ["CC1=NN(c2ccccc2)C(=O)C1", 306],
  ["Oc1nc(O)c2nc(O)[nH]c2n1", 25.7],
  ["N[C@@H](CCC(=O)N[C@@H](CS)C(=O)NCC(=O)O)C(=O)O", 10400]
]}

* * *

protocol-details: Antioxidant activity assessed as AAPH-induced alkoxyl radical scavenging activity by ESR spin trapping method relative to CYPMPO
Format: functional
observation-type: Ratio

{"columns": ["compound", "observation-type", "reported"],
 "data": [
  ["Cc1c(C)c2c(c(C)c1O)CCC(C)(C(=O)O)O2 (centres undefined)", "Ratio", 214],
  ["N[C@@H](CCC(=O)N[C@@H](CS)C(=O)NCC(=O)O)C(=O)O", "Ratio", 121],
  ["Oc1nc(O)c2nc(O)[nH]c2n1", "Ratio", 436],
  ["CC1=NN(c2ccccc2)C(=O)C1", "Ratio", 139]
]}

* * *

Reported K values for the following compounds.
protocol-details: Antioxidant activity assessed as riboflavin/EDTA-induced superoxide anion radical scavenging activity by ESR spin trapping method
Type: functional
observation-type: K (×10³ /M/s)

{"columns": ["compound", "reported"],
 "data": [
  ["Cc1c(C)c2c(c(C)c1O)CCC(C)(C(=O)O)O2 (stereo unspecified)", 2.1],
  ["Oc1nc(O)c2nc(O)[nH]c2n1", 10.7],
  ["N[C@@H](CCC(=O)N[C@@H](CS)C(=O)NCC(=O)O)C(=O)O", 1.12],
  ["CC1=NN(c2ccccc2)C(=O)C1", 2.93]
]}
